Give measured growth for each item. Keep answers brief.
tested on: SK-MEL-28 melanoma; test: NCI-60 one-dose screen, 48 h (100 = growth as untreated, 0 = no growth, -100 = all killed); settings: 10 µM unless noted
Compounds without any hit were thinned out: in the full panel of roughly 83,000, 20% have a hit.
Give your result in % as a bare value.

Query block: Using the record for `COc1cc(NC(=O)c2cncnc2Nc2ccc3c(ccn3Cc3cccc(F)c3)c2)cc(OC)c1` , report its growth.
Result block: 59.6

Query block: Using the record for `Nc1ccc(N)c2c1C(=O)c1cccc([N+](=O)[O-])c1C2=O` , report its growth.
Result block: 102

Query block: Using the record for `CC(C)c1nc(N(C)S(C)(=O)=O)nc(-c2ccc(F)cc2)c1/C=C/C(=O)C[C@@H](O)CC(=O)O` , report its growth.
Result block: 112

Query block: Using the record for `C#CCOc1cccc(Nc2ncnc3c(NC(=O)CCl)cccc23)c1` , report its growth.
Result block: 75

Query block: Using the record for `Cc1c2ccncc2c(C)c2c1c1ccccc1n2CCCCCC(=O)O` , report its growth.
Result block: 113

----------
tested on: UO-31 renal; experiment: NCI-60 one-dose screen, 48 h (100 = growth as untreated, 0 = no growth, -100 = all killed); conditions: 10 µM unless noted
This is part of a sample that, as a whole, favours compounds with a hit. Of some 83,000 tested, about 20% had one in any assay.
Mark 1 only for growth values smaller than 70%; exact matches and larger values are 0.

Query block: Lab note: growth threshold 70%. Does this molecule come in strictly under it? `O=C(Nc1ccccc1CNc1nc(Nc2ccc(OCCN3CCCC3)cc2)ncc1Cl)NC1CCCCC1`
Result block: 1

Query block: Lab note: growth threshold 70%. Does this molecule come in strictly under it? `CN(C)CCCN(CCC1CCCCC1)CCC1CCCCC1`
Result block: 1

Query block: Lab note: growth threshold 70%. Does this molecule come in strictly under it? `NCCNc1ccc([N+](=O)[O-])cc1`
Result block: 0

Query block: Lab note: growth threshold 70%. Does this molecule come in strictly under it? `Nc1ccc(Cl)c2c(=O)c3ccccc3[nH]c12`
Result block: 1

Query block: Lab note: growth threshold 70%. Does this molecule come in strictly under it? `CC(C)(C#N)c1cc(C(=O)Nc2cc(Nc3ncccc3-c3ncnc4nc[nH]c34)ccc2F)cc(C(F)(F)F)c1`
Result block: 1

Query block: Lab note: growth threshold 70%. Does this molecule come in strictly under it? `O=C(N/N=C/c1ccccc1Cl)c1ccccc1Nc1ccnc(C(F)(F)F)c1`
Result block: 1

Query block: Lab note: growth threshold 70%. Does this molecule come in strictly under it? `CCCCC/C=C/CCC(=O)N[C@H]1[C@H](Oc2c3cc4cc2Oc2ccc(cc2Cl)[C@@H](O[C@@H]2O[C@H](CO)[C@@H](O)[C@H](O)[C@H]2NC(C)=O)[C@@H]2NC(=O)[C@H](NC(=O)[C@@H]4NC(=O)[C@H]4NC(=O)[C@@H](Cc5ccc(c(Cl)c5)O3)NC(=O)[C@@H](N)c3ccc(O)c(c3)Oc3cc(O)cc4c3)c3ccc(O)c(c3)-c3c(O[C@H]4O[C@H](CO)[C@@H](O)[C@H](O)[C@@H]4O)cc(O)cc3[C@H](C(=O)O)NC2=O)O[C@H](CO)[C@H](O)[C@@H]1O`
Result block: 0

Query block: Lab note: growth threshold 70%. Does this molecule come in strictly under it? `C(=N\Nc1nnc2n1N=C(c1ccccc1)CS2)/c1ccc(OCc2ccccc2)cc1`
Result block: 0

Query block: Lab note: growth threshold 70%. Does this molecule come in strictly under it? `Cc1nc2cccc(NCc3ccc(C(=O)NO)cc3)c2c(=O)n1-c1ccccc1`
Result block: 1

Query block: Lab note: growth threshold 70%. Does this molecule come in strictly under it? `C/C(=N\NC(=O)c1ccc(C(C)(C)C)cc1)c1ccc(O)cc1O`
Result block: 1

Query block: Lab note: growth threshold 70%. Does this molecule come in strictly under it? COc1cc(C2CC(c3cccc(Nc4ccncc4)c3)=Nc3c(N)ncnc3N2)cc(OC)c1OC (stereo unspecified)
Result block: 0

Query block: Lab note: growth threshold 70%. Does this molecule come in strictly under it? `COc1ccc(-c2nc3cc(C(=O)NC4CCCCC4)ccc3n2C2CCCCC2)cc1`
Result block: 0

Query block: Lab note: growth threshold 70%. Does this molecule come in strictly under it? `C[C@@H]1N=C(c2ccc(Cl)cc2Cl)Nc2nc3ccccn3c2C1=O`
Result block: 1

Query block: Lab note: growth threshold 70%. Does this molecule come in strictly under it? `O=C(/C=C/c1ccc(Cl)cc1)c1ccc(-n2cc(CN3CCN(c4cc5c(cc4F)c(=O)c(C(=O)O)cn5C4CC4)CC3)nn2)cc1`
Result block: 1

Query block: Lab note: growth threshold 70%. Does this molecule come in strictly under it? `CN(C)c1ccc(Cc2cc(-c3ccccc3)nn(C/C(=N/O)c3ccccc3)c2=O)cc1`
Result block: 1
